Tested on: Bacteroides fragilis GM 7000
Measurement Notes: In vitro antibacterial activity, MIC (standard strain)
Format: cell-based
Particulars: GM7000; Bacteroides fragilis GM 7000; 10^6 cells/ml; standard strain; read-out: MIC
Structures can show the parent of a compound that is named as a salt.
Quantity Measured: MIC (µg/mL)
Report only the number, with the unit µg/mL understood.

                                   molecule  quantity_measured  recorded_number
0  CCCNCC1CCN(c2c(F)cc3c(=O)c(C(=O)O)cn(C4CC4)c3c2F)C1 (centres unmarked) [Example 10, hydrochloride]                MIC             1.56
1  CC(C)NCC1CCN(c2c(F)cc3c(=O)c(C(=O)O)cn(C4CC4)c3c2F)C1.Cl (centres unmarked)                MIC             1.56
2  CNCC1CCN(c2cc3c(cc2F)c(=O)c(C(=O)O)cn3C2CC2)C1 (centres unmarked) [Example 9, hydrochloride]                MIC               25

What value of MIC has been reported for the following molecule? CNCC1CCN(c2c(F)cc3c(=O)c(C(=O)O)cn(C4CC4)c3c2Br)C1 (centres unmarked)
0.2

What value of MIC has been reported for the following molecule? CNCC1CCN(c2c(F)cc3c(=O)c(C(=O)O)cn(C4CC4)c3c2Cl)C1 (centres unmarked) [Example 12, hydrochloride]
0.2

What value of MIC has been reported for the following molecule? CCNCC1CCN(c2cc3c(cc2F)c(=O)c(C(=O)O)cn3C2CC2)C1.Cl (centres unmarked)
25

What value of MIC has been reported for the following molecule? CCNCC1CCN(c2c(F)cc3c(=O)c(C(=O)O)cn(C4CC4)c3c2Cl)C1 (centres unmarked)
0.1

What value of MIC has been reported for the following molecule? CCNCC1CCN(c2c(F)cc3c(=O)c(C(=O)O)cn(C4CC4)c3c2Br)C1 (centres unmarked)
0.1

What value of MIC has been reported for the following molecule? CCNCC1CCN(c2c(F)cc3c(=O)c(C(=O)O)cn(CC)c3c2F)C1 (centres unmarked) [Ref.1, reference compound]
12.5

====

Measured concentration at 8 h by item
Measurement Notes: Absorption and distribution: concentration in blood and organs after oral administration, bioassay by cup method
Format: in vivo
Particulars: rat; rats, fasted, 10 mg/kg oral, liver, 8 hr after administration; Mean ± S.D. (n=5); read-out: Concentration in organs: Liver
Where a name gives a salt, the structure may show the parent alone.
Report only the number, with the unit ng/g understood.

>>> df
                                   compound  recorded_number
0  CCNCC1CCN(c2c(F)cc3c(=O)c(C(=O)O)cn(C4CC4)c3c2F)C1 (centres unmarked) [Example 2, hydrochloride]              820

What value of concentration at 8 h has been reported for the following compound? CCNCC1CCN(c2c(F)cc3c(=O)c(C(=O)O)cn(C4CC4)c3c2Cl)C1 (centres unmarked)
1130

====

Measured MIC by item
Test system: S. faecalis IID 682
Measurement Notes: In vitro antibacterial activity, MIC (standard strain)
Type: cell-based
Particulars: Enterococcus faecalis, IID682; S. faecalis IID 682; 10^6 cells/ml; standard strain; read-out: MIC
Where a name gives a salt, the structure may show the parent alone.
Report only the number, with the unit µg/mL understood.

In [3]: df
Out[3]:
                                   molecule  recorded_number
0  CCCNCC1CCN(c2c(F)cc3c(=O)c(C(=O)O)cn(C4CC4)c3c2F)C1 (stereo not shown) [Example 10, hydrochloride]             0.39
1  CNCC1CCN(c2cc3c(cc2F)c(=O)c(C(=O)O)cn3C2CC2)C1 (stereo not shown) [Example 9, hydrochloride]             0.39
2  NCC1CCN(c2c(F)cc3c(=O)c(C(=O)O)cn(C4CC4)c3c2Br)C1 (stereo not shown)              0.1
3  CNCC1CCN(c2c(F)cc3c(=O)c(C(=O)O)cn(C4CC4)c3c2Br)C1 (stereo not shown)             0.05
4  CNCC1CCN(c2c(F)cc3c(=O)c(C(=O)O)cn(C4CC4)c3c2F)C1 (stereo not shown) [Example 8, hydrochloride]              0.1
5  CCNCC1CCN(c2c(F)cc3c(=O)c(C(=O)O)cn(CC)c3c2F)C1 (stereo not shown) [Ref.1, reference compound]              0.2
6  NCC1CCN(c2c(F)cc3c(=O)c(C(=O)O)cn(C4CC4)c3c2F)C1 (stereo not shown) [Example 1, hydrochloride]             0.05
7  CNCC1CCN(c2c(F)cc3c(=O)c(C(=O)O)cn(C4CC4)c3c2Cl)C1 (stereo not shown) [Example 12, hydrochloride]             0.05

What value of MIC has been reported for the following molecule? CN(C)CC1CCN(c2c(F)cc3c(=O)c(C(=O)O)cn(C4CC4)c3c2F)C1 (stereo not shown)
0.2
